Data credit: patent US20260183274A1

Assignment: determine reported Relative cell viability (%), SU-DHL-8 for the given compounds.
- Test system: Human B Lymphocyte cell line, SU-DHL-8
- Method summary: Relative cell viability CCK-8, SU-DHL-8
- Type: cell-based
- Test settings: 50 μM; 48 hours; untreated (DMSO) = 100%
Give bare numbers, in %.

Recorded Relative cell viability (%), SU-DHL-8, per entry:
Compound | Relative cell viability (%), SU-DHL-8
C[C@H]1CNCCN1CCCCCCCCCCCCNC(=O)c1cccnc1N.Cl | 2.32
Nc1ncccc1C(=O)NCCCCCCCCCCCCN1CCN(CCO)CC1 | 2.23
Nc1ncccc1C(=O)NCCCCCCCCCCCCN1CCC(Oc2ccncc2)CC1 | 1.42

Record Relative cell viability (%), SU-DHL-8 for all entries; do not skip any.
1. CC1CCCN(CCCCCCCCCCCCNC(=O)c2cccnc2N)CC1 (centres unmarked)
2. CN1CCN(CCCCCCCCCCCCNC(=O)c2cccnc2F)CC1

1. 4.27
2. 31.11
